Assign cell viability to each entry below.
Test system: Caco-2
Test: cell viability relative to DMSO; higher = less toxic
Conditions: 72 h; 1 nM
Include the unit after the number when you answer.

Q) Please give the measured cell viability for this compound: Cc1ccc(=O)n(-c2ccc(O)cc2)c1 [F351]
A) 92.1%

Q) Same question for O=C(NCCCN1CCCCCC1)C(c1ccccc1)C1CCCCC1 (centres undefined) please.
A) 101%

Q) Then CCCN(CCc1cccs1)[C@H]1CCc2c(O)cccc2C1 [rotigotine] ?
A) 98.7%

Q) What do you get for C[C@]12N[C@H](Cc3ccccc31)c1ccccc12 [dizocilpine-(-)] ?
A) 98.7%

###

Tested on: U2OS
Assay: cell viability relative to DMSO; higher = less toxic
Settings: 72 h; 100 nM
METRIC_NAME: cell viability (%)
Kindly provide the numeric value in % only, without the unit symbol.

Q) Short answer please: cell viability, U2OS, entry O=C(Oc1ccccc1)c1ccccc1O [phenyl-salicylate]
A) 97.5

Q) Can you handle CC(C)C[C@H](NC(=O)[C@@H](Cc1c[nH]c2ccccc12)NC(=O)[C@H](Cc1ccc(O)cc1)NC(=O)[C@H](CO)NC(=O)[C@H](Cc1c[nH]c2ccccc12)NC(=O)[C@H](Cc1c[nH]cn1)NC(=O)[C@@H]1CCC(=O)N1)C(=O)N[C@@H](CCCNC(=N)N)C(=O)N1CCC[C@H]1C(=O)NCC(N)=O next?
A) 96.8

Q) Next compound: CC=C1C(=O)C[C@H]2[C@@H]3CCC4=CC(=O)CC[C@]4(C)[C@H]3CC[C@]12C
A) 102

Q) Next compound: C[C@@H]1CN(c2c(F)c(N)c3c(=O)c(C(=O)O)cn(C4CC4)c3c2F)C[C@H](C)N1
A) 95.9

Q) Ok, now CC(C)(O)c1coc(S(=O)(=O)NC(=O)Nc2c3c(cc4c2CCC4)CCC3)c1
A) 105

Q) What would you report for CC(C)Nc1cccnc1N1CCN(C(=O)c2cc3cc(NS(C)(=O)=O)ccc3[nH]2)CC1 ?
A) 102

Q) Moving on to COc1nc(C)nc(Cl)c1NC1=NCCN1
A) 97.1

Q) Also, CCCc1nc(C(C)(C)O)c(C(=O)O)n1Cc1ccc(-c2ccccc2-c2nnn[nH]2)cc1 please.
A) 98.7

Q) Moving on to the next compound: CCC(=O)NO
A) 92.8

###

Test system: Vero E6
Experiment: cell viability relative to DMSO; higher = less toxic
Settings: 72 h; 1000 nM
METRIC_NAME: cell viability

Q) Name the recorded cell viability for COc1ccc(C(Cl)=C(c2ccc(OC)cc2)c2ccc(OC)cc2)cc1 .
A) 99.5%

Q) Next compound up: CC1CC(OC(=O)C(O)c2ccccc2)CC(C)(C)C1 (centres undefined) [cyclandelate]
A) 96.7%

Q) And then CC(C)OC(=O)[C@H](C)N[P@@](=O)(OC[C@H]1O[C@@H](n2ccc(=O)[nH]c2=O)[C@](C)(F)[C@@H]1O)Oc1ccccc1 , what is it?
A) 99%

Q) And C[C@H](N[C@@H](CCc1ccccc1)C(=O)O)C(=O)N1CCC[C@H]1C(=O)O ?
A) 101%

###

Test system: Calu-3
Assay: cell viability relative to DMSO; higher = less toxic
Details: 72 h; 100 nM
METRIC_NAME: cell viability (%)
Dear colleague, please return just the value in %, with no unit written.

Q) Name the recorded cell viability for COc1cc2nc(N3CCN(C(=O)C4CCCO4)CC3)nc(N)c2cc1OC (configuration not stated) .
A) 105

Q) And the next one, COc1cccc(Nc2ncnn3ccc(CN4CC[C@@H](N)[C@H](O)C4)c23)c1 ?
A) 46.5

Q) Can you handle OC(CCCN1CCN(c2ncc(F)cn2)CC1)c1ccc(F)cc1 (configuration not stated) next?
A) 102

Q) Field entry: NC(=O)[C@@H](CC1CC1)[C@@H](CCC(F)(F)F)C(=O)N[C@H]1N=C(c2ccccc2)c2cccc(F)c2NC1=O
A) 91.9

Q) Now try CC(O)CC(=O)O (stereo not drawn) [beta-hydroxybutyrate] .
A) 100

Q) What do we get for Cc1nc(NC(=O)N2CCC[C@H]2C(N)=O)sc1-c1ccnc(C(C)(C)C(F)(F)F)c1 ?
A) 88.4

Q) Cc1c(N)nc([C@H](CC(N)=O)NC[C@H](N)C(N)=O)nc1C(=O)N[C@H](C(=O)N[C@H](C)[C@@H](O)[C@H](C)C(=O)N[C@H](C(=O)NCCc1nc(-c2nc(C(=O)NCCCNCCCCN)cs2)cs1)[C@@H](C)O)[C@@H](O[C@@H]1O[C@@H](CO)[C@@H](O)[C@H](O)[C@@H]1O[C@@H]1O[C@H](CO)[C@@H](O)[C@H](OC(N)=O)[C@@H]1O)c1cnc[nH]1 ?
A) 93.1
